B1: tRNA (parent)
chain: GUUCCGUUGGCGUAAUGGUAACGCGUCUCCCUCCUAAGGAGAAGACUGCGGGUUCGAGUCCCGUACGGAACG

- Variants of: B1
- experiment summary: yeast fitness relative to wild type (ratio to wild type); higher = fitter; tRNA-Arg(CCU), competitive growth, 37 C, YPD
Variants at the floor of the assay were thinned out.
metric name: yeast fitness
Answers are plain numbers.

Solved cases below.
variant spec | readout number
C22U C60U A70U | 0.678
G44A A65U | 0.816
A20G A42G | 0.969
U16A C27G A65C | 0.585
G17C C22A U32C | 0.553
A15U G58C A70U | 0.643
A15C A43U C49G | 0.515
C30U U47C C66U | 0.577
C27U C31G A69C | 0.604

Please give the documented yeast fitness of U26C C66A 0.631
